- applied.conditions: Ebola virus entry assay, blue channel fluorescence
Activity calls are given as the source filed them.
Outcome codes: active, inactive

compound: C=C[C@H]1CN2CC[C@H]1C[C@H]2[C@H](O)c1ccnc2ccc(OC)cc12
category: inactive
--
compound: CCCCCN(C)CCC(O)(P(=O)(O)O)P(=O)(O)O
category: inactive
--
compound: CN1CCN(CCC=C2c3ccccc3Sc3ccc(S(=O)(=O)N(C)C)cc32)CC1
category: active
--
compound: CC(O)(P(=O)(O)O)P(=O)(O)O
category: inactive
--
compound: CO[C@@]1(NC(=O)C2SC(=C(C(N)=O)C(=O)O)S2)C(=O)N2C(C(=O)O)=C(CSc3nnnn3C)CS[C@@H]21 (stereo not given in full)
category: inactive
--
compound: COc1ccnc(CS(=O)c2nc3cc(OC(F)F)ccc3[nH]2)c1OC (stereo not given)
category: inactive
--
compound: CCC[C@@H]1C[C@@H](C(=O)N[C@@H]([C@H]2O[C@H](SC)[C@H](O)[C@@H](O)[C@H]2O)[C@H](C)Cl)N(C)C1
category: inactive
--
compound: C[N+]1(C)CCCC(OC(=O)C(O)(c2ccccc2)c2ccccc2)C1 (stereo not given)
category: inactive
--
compound: CC[C@H]1OC(=O)[C@H](C)[C@@H](O[C@H]2C[C@@](C)(OC)[C@@H](O)[C@H](C)O2)C(C)[C@@H](O[C@@H]2O[C@H](C)C[C@H](N(C)C)[C@@H]2O)[C@](C)(OC)C[C@@H](C)C(=O)[C@H](C)[C@@H](O)[C@]1(C)O (stereo not given in full)
category: active
--
compound: COc1cc(C)c(/C=C/C(C)=C/C=C/C(C)=C/C(=O)O)c(C)c1C
category: inactive
--
compound: C=C1C(=C/C=C2\CCC[C@]3(C)[C@@H]([C@H](C)CCCC(C)(C)O)CC[C@@H]23)C[C@@H](O)C[C@@H]1O
category: inactive
--
compound: C=CC(N)CCC(=O)O (stereo not given)
category: inactive
--
compound: N[C@@H](Cc1cc(I)c(Oc2ccc(O)c(I)c2)c(I)c1)C(=O)O
category: inactive
--
compound: Nc1ccn(C[C@@H](CO)OCP(=O)(O)O)c(=O)n1
category: inactive
--
compound: COc1cccc2c1C(=O)c1c(O)c3c(c(O)c1C2=O)C[C@@](O)(C(=O)CO)C[C@@H]3O[C@H]1C[C@H](N)[C@@H](O)[C@H](C)O1
category: active
--
compound: CN1C(=O)C(O)N=C(c2ccccc2)c2cc(Cl)ccc21 (stereo not given)
category: inactive
--
compound: Cc1onc(-c2ccccc2)c1C(=O)N[C@@H]1C(=O)N2[C@@H](C(=O)O)C(C)(C)S[C@@H]12
category: inactive
--
compound: CO[C@H]1C[C@@H]2CC[C@@H](C)[C@@](O)(O2)C(=O)C(=O)N2CCCC[C@@H]2C(=O)O[C@H]([C@H](C)C[C@@H]2CC[C@H](OCCO)[C@H](OC)C2)CC(=O)[C@H](C)C=C(C)[C@@H](O)[C@@H](OC)C(=O)[C@H](C)C[C@H](C)C=CC=CC=C1C
category: inactive
--
compound: C[C@H](CS)C(=O)N1CCC[C@H]1C(=O)O
category: inactive
--
compound: C#CCN[C@@H]1CCc2ccccc21
category: inactive
--
compound: CN1C(CSCC(F)(F)F)Nc2cc(Cl)c(S(N)(=O)=O)cc2S1(=O)=O (stereo not given)
category: inactive
--
compound: C=C1[C@H](CO)[C@@H](O)C[C@@H]1n1cnc2c(=O)[nH]c(N)nc21
category: inactive
--
compound: CC[C@H]1OC(=O)[C@H](C)[C@@H](O[C@H]2C[C@@](C)(OC)[C@@H](O)[C@H](C)O2)[C@H](C)[C@@H](O[C@@H]2O[C@H](C)C[C@H](N(C)C)[C@@H]2O)[C@](C)(O)C[C@@H](C)CN(C)[C@H](C)[C@@H](O)[C@]1(C)O
category: active
--
compound: COc1cccc2c1C(=O)c1c(O)c3c(c(O)c1C2=O)C[C@@](O)(C(C)=O)C[C@H]3O[C@H]1C[C@H](N)[C@H](O)[C@H](C)O1
category: active
--
compound: CC(C)(O/N=C(\C(=O)N[C@@H]1C(=O)N2C(C(=O)[O-])=C(C[n+]3ccccc3)CS[C@H]12)c1csc(N)n1)C(=O)O
category: inactive
--
compound: OCC(S)CS (stereo not given)
category: inactive
--
compound: CSCC[C@H](NC(=O)[C@H](Cc1ccc(OS(=O)(=O)O)cc1)NC(=O)[C@@H](N)CC(=O)O)C(=O)NCC(=O)N[C@@H](Cc1c[nH]c2ccccc12)C(=O)N[C@@H](CCSC)C(=O)N[C@@H](CC(=O)O)C(=O)N[C@@H](Cc1ccccc1)C(N)=O
category: inactive
--
compound: COCC1=C(C(=O)OC(C)OC(=O)OC(C)C)N2C(=O)[C@@H](NC(=O)/C(=N\OC)c3csc(N)n3)[C@H]2SC1 (stereo not given in full)
category: inactive
--
compound: CO[C@@H]1[C@@H](O[C@@H]2O[C@H](C)[C@@H](O[C@H]3C[C@@](C)(O)[C@@H](O)[C@H](C)O3)[C@H](N(C)C)[C@H]2O)[C@@H](CC=O)C[C@@H](C)[C@@H](O[C@@H]2CC[C@H](N(C)C)[C@@H](C)O2)/C=C/C=C/C[C@@H](C)OC(=O)C[C@H]1O
category: inactive
--
compound: C#CCC(Cc1cnc2nc(N)nc(N)c2n1)c1ccc(C(=O)N[C@@H](CCC(=O)O)C(=O)O)cc1 (stereo not given in full)
category: inactive

----------
- experiment.description: Primary qHTS to identify inhibitors of SARS-CoV-2 cell entry (AID 1645846); further: nearly all actives have a fitted effect of over 45% in size
- applied.conditions: SARS-CoV-2 pseudovirus cell entry assay, luminescence; at 57.1 µM (top of the series) unless noted
Results filed as inconclusive are left out.
# maps each entry to its activity change, negative = inhibition

compound: CO/N=C(\C(=O)N[C@@H]1C(=O)N2C(C(=O)O)=C(C[N+]3(C)CCCC3)CS[C@H]12)c1csc(N)n1
units.label: %
activity change, negative = inhibition: -9.52
--
compound: C#C[C@]1(O)CC[C@H]2[C@@H]3CCc4cc(OC5CCCC5)ccc4[C@H]3CC[C@@]21C
units.label: %
activity change, negative = inhibition: -15.1
--
compound: CC(=O)CC(c1ccccc1)c1c(O)c2ccccc2oc1=O (stereo not drawn)
units.label: %
activity change, negative = inhibition: 0.432
--
compound: N#C[C@H]1C[C@H]2C[C@@H]2N1C(=O)[C@@H](N)C12CC3CC(CC(O)(C3)C1)C2
units.label: %
activity change, negative = inhibition: -17.5
--
compound: CC(C)[C@H](N)C(=O)OCCOCn1cnc2c(=O)[nH]c(N)nc21
units.label: %
activity change, negative = inhibition: -28.1
--
compound: C#CC(O)(C=CCl)CC (stereo not drawn)
units.label: %
activity change, negative = inhibition: -20.1
--
compound: CC(=O)N=c1sc(S(N)(=O)=O)nn1C
units.label: %
activity change, negative = inhibition: -31.8
--
compound: CC(C)Cc1ccc(C(C)C(=O)O)cc1 (stereo not drawn)
units.label: %
activity change, negative = inhibition: 0.301
--
compound: CCC(CC)(CNC(=O)CCCO)c1cccc(OC)c1
units.label: %
activity change, negative = inhibition: -32.3
--
compound: Cc1cccc(C)c1NC(=O)c1cc(S(N)(=O)=O)c(Cl)cc1O
units.label: %
activity change, negative = inhibition: -7.8
--
compound: COc1c(N2C[C@@H]3CCCN[C@@H]3C2)c(F)cc2c(=O)c(C(=O)O)cn(C3CC3)c12
units.label: %
activity change, negative = inhibition: -24.8
--
compound: CC(=O)O[C@@H]1CC2C3CCc4cc(OC(=O)c5ccccc5)ccc4C3CCC2(C)[C@H]1OC(C)=O (stereo partly drawn)
units.label: %
activity change, negative = inhibition: 4.28

----------
- experiment.description: qHTS of pediatric cancer cell lines to identify multiple opportunities for drug repurposing: Primary screen for A673 cells (AID 1347092); further: nearly all actives have a fitted effect of over 45% in size
- applied.conditions: A673 Ewing sarcoma viability, CellTiter-Glo ATP luminescence, 48 h; series mostly up to 46 µM
Records with an inconclusive call do not appear. The source made the active and inactive calls. The call rests on the fitted dose curve; in most records, active means well fitted cell-killing curve with a large enough effect; inconclusive means small, poorly fitted or top-dose-only effect; inactive means no such curve, though single readings can be large or run the other way.
Outcome codes: YES for active, NO for inactive

molecule: Clc1cccc(SC2CCNCC2)n1
category: NO
//
molecule: C=CCC1(C(C)CC)C(=O)NC(=O)NC1=O (stereo not given)
category: NO
//
molecule: CN1CC[C@]23c4c5ccc(O)c4O[C@H]2[C@@H](O)CC[C@H]3[C@H]1C5
category: NO
//
molecule: COc1cccc([C@@]2(O)CCCC[C@@H]2CN(C)C)c1
category: NO
//
molecule: CN1C(=O)CCS(=O)(=O)C1c1ccc(Cl)cc1 (stereo not given)
category: NO
//
molecule: CCC1(CC)C(=O)C=CNC1=O
category: NO
//
molecule: C[C@]12CC[C@H]3[C@@H](CCC4=CC(=O)CC[C@@H]43)[C@@H]1CC[C@@H]2OC(=O)CCc1ccco1
category: NO
//
molecule: CCCOC(=O)c1cncn1C(C)c1ccccc1 (stereo not given)
category: NO
//
molecule: CC(C)(C)NCC(O)c1cc(Cl)c(N)c(C(F)(F)F)c1 (stereo not given)
category: NO
//
molecule: CC(Cc1ccccc1)NCCn1cnc2c1c(=O)n(C)c(=O)n2C (stereo not given)
category: NO
//
molecule: O=C(O)CCCc1ccc(N(CCCl)CCCl)cc1
category: NO
//
molecule: CCOP(=S)(OCC)Oc1ccc2c(C)c(Cl)c(=O)oc2c1
category: YES
//
molecule: CC[N+]1(CC)CCC(OC(=O)C(O)(c2ccccc2)c2ccccc2)C1 (stereo not given)
category: NO
//
molecule: C=CCN1C[C@H](C)N([C@H](c2ccc(C(=O)N(CC)CC)cc2)c2cccc(OC)c2)C[C@H]1C
category: NO
//
molecule: CC(=O)OCC1=C(C(=O)O)N2C(=O)[C@@H](N)[C@H]2SC1
category: NO
//
molecule: C=CCC1([C@H](C)CCC)C(=O)NC(=O)NC1=O
category: NO
//
molecule: Nc1nc(N)nc(NC2CC2)n1
category: NO
//
molecule: O=c1[nH]oc2c1CCNC2
category: NO
//
molecule: CC(C)c1c(CN(C)C(C)Cc2ccccc2)n(C)n(-c2ccccc2)c1=O (stereo not given)
category: NO
//
molecule: CCC1(c2ccc(N)cc2)CCC(=O)NC1=O (stereo not given)
category: NO
//
molecule: COc1cc(OC)c(OC)cc1C=O
category: NO
//
molecule: CC(C)(C)NCC(O)c1ccccc1Cl (stereo not given)
category: NO
//
molecule: CCC(C)(C)c1ccc(O)cc1
category: NO
//
molecule: C[C@]12CC[C@@H]3c4ccc(OC(=O)N(CCCl)CCCl)cc4CC[C@H]3[C@@H]1CC[C@@H]2O
category: NO
//
molecule: O=C1c2ccccc2C(=O)c2ccccc21
category: NO
